assay: gradient 5% acetonitrile 3 min, to 50% in 2 min, to 85% in 15 min, held 3 min, 100 µL/min; details: column: Zorbax Extend-C18 2.1 x 50 mm; eluents: water / acetonitrile, 0.1% formic acid
Exam item: assign y to entries whose RP-LC retention time is below 700 s and n to entries at or above 700 s. Note that a value of exactly 700 s receives n.

Query block: Item CC(C)CC(=O)N1CCN(c2nc(CN3CCC(C)CC3)cs2)CC1 : RP-LC retention time beneath 700 s, strictly?
Result block: y

Query block: Input O=c1ccc(S(=O)(=O)N2CCOCC2)cn1Cc1ccc(Cl)cc1 ; condition: RP-LC retention time strictly below 700 s. Does it hold?
Result block: n

Query block: Lab note: RP-LC retention time threshold 700 s. Does this molecule come in strictly under it? CSc1ccc(-c2nc3cnccn3c2Nc2ccc(C(C)C)cc2)cc1
Result block: n

Query block: Strictly below 700 s in RP-LC retention time? CCc1cccc(NC(=O)C2CCN(C(=O)c3ncn4c3COC(c3ccccc3)C4)CC2)c1 (stereo not given)
Result block: n

Query block: Item Cc1ccc(CNc2c(-c3ccc(C)cc3)nc3ncccn23)cc1 : RP-LC retention time beneath 700 s, strictly?
Result block: n

Query block: Is RP-LC retention time of COc1ccc(C2C(C(=O)NCCN3CCOCC3)c3cc(OC)c(OC)cc3C(=O)N2C)cc1 (stereo not given) strictly below 700 s?
Result block: y

Query block: hey, is RP-LC retention time for CCOC(=O)c1ccc(NC(=O)Cn2nc3c(N4CCSCC4)nccn3c2=O)cc1 lower than 700 s or not?
Result block: n

Query block: Lab note: RP-LC retention time threshold 700 s. Does this molecule come in strictly under it? CCOc1ccc(N2CC(C)Cn3c2nc2c3c(=O)n(C)c(=O)n2C)cc1 (stereo not given)
Result block: n

---

assay: gradient 5% acetonitrile 3 min, to 50% in 2 min, to 85% in 15 min, held 3 min, 100 µL/min; conditions: column: Zorbax Extend-C18 2.1 x 50 mm; eluents: water / acetonitrile, 0.1% formic acid
Observable: RP-LC retention time (s)
Express the result in s but write the number alone.

Lab note: CC1=C(C(=O)NCc2ccc3c(c2)OCO3)C2(CCN(Cc3ccccc3)CC2)OC1=O gave RP-LC retention time of 669

RP-LC retention time in this record for COc1cccc(N2CCN(C(=O)C3CC(=O)N(c4n[nH]c5cccc(F)c45)C3)CC2)c1 (centres undefined) : 742

Record summary for O=C(CCn1nnc2ccccc2c1=O)NCCn1ncccc1=O : reported RP-LC retention time = 584

RP-LC retention time reported for this molecule COc1ccc(Cl)cc1NC(=O)c1cnc2sccn2c1=O : 839

Recorded RP-LC retention time (molecule CC(C)Oc1ccc(-c2noc(CCn3nc(-c4ccc(F)cc4)ccc3=O)n2)cc1 ): 1100

Per the record, O=C(Nc1ccc(Cl)cc1F)C1CCCN(C(=O)c2cc(-c3ccccn3)n[nH]2)C1 (centres undefined) has RP-LC retention time of 740

So, Cc1cc(CN2CCC(CNC(=O)Cc3ccccc3Cl)CC2)c(C)o1 ? Its RP-LC retention time was 583

Per the record, Cc1noc(C)c1CCC(=O)N1CCN(c2c(C)nn(C3CCS(=O)(=O)C3)c2C)CC1 (centres undefined) has RP-LC retention time of 650

O=C(NCc1ccccc1)N1CCCC(Cn2cnc3cccnc32)C1 (centres undefined) has a reported RP-LC retention time of 618

---

assay: gradient 5% acetonitrile 3 min, to 50% in 2 min, to 85% in 15 min, held 3 min, 100 µL/min; conditions: column: Zorbax Extend-C18 2.1 x 50 mm; eluents: water / acetonitrile, 0.1% formic acid
Exam item: assign class 1 to entries whose RP-LC retention time is below 700 s and class 0 to entries at or above 700 s. Note that a value of exactly 700 s receives class 0.

Query block: Take the compound O=C(NCC(O)(c1ccccc1)C(F)(F)F)c1ccc2nsnc2c1 (stereo not given) and say whether its RP-LC retention time is less than 700 s.
Result block: class 0

Query block: Lab note: RP-LC retention time threshold 700 s. Does this compound come in strictly under it? CCCNc1c(C(=O)OC)c(=O)[nH]c2c(Cl)cccc12
Result block: class 0

Query block: Does the reported RP-LC retention time of Cc1ccc2c(c1)C(=O)NC1(CCN(C(=O)Nc3ccc(C)c(C)c3)CC1)N2C stay below 700 s?
Result block: class 0

Query block: Given the entry Cc1cc(-c2nnc(C3CCC3)o2)c(C)n1CC(=O)Nc1ccccc1F , would its reported RP-LC retention time be below 700 s?
Result block: class 0

Query block: Determine if CCCCN1CCN(C(=O)CN2CCN(Cc3ccccc3)C2=O)CC1 shows RP-LC retention time strictly lower than 700 s.
Result block: class 1

Query block: Field: below-cutoff. Rule: recorded RP-LC retention time strictly less than 700 s. Subject: O=C1c2ccccc2-c2onc3c(N4CCN(c5ccccn5)CC4)cc(N4CCCCC4)c1c23
Result block: class 1

---

test: gradient 5% acetonitrile 3 min, to 50% in 2 min, to 85% in 15 min, held 3 min, 100 µL/min; conditions: column: Zorbax Extend-C18 2.1 x 50 mm; eluents: water / acetonitrile, 0.1% formic acid
Assign y whenever RP-LC retention time does not fall below 900 s; assign n whenever it does.

Query block: Would you say O=S(=O)(NCc1ccccn1)c1ccc(F)c(Cl)c1 shows RP-LC retention time at minimum 900 s?
Result block: n

Query block: Is RP-LC retention time for Cc1nc(-c2nnn(Cc3ccccc3)c2C)no1 at or above 900 s?
Result block: n

Query block: Is RP-LC retention time for CCOC(=O)c1c(NC(=O)CN2CCN(CC)CC2)sc(C)c1C at or above 900 s?
Result block: n

Query block: Is reported RP-LC retention time greater than or equal to 900 s here: Cc1ccc(NC(=O)c2cc(C(C)C)n3nccc3n2)c(F)c1
Result block: y

Query block: Is RP-LC retention time at least 900 s? Consider CCCn1nnc2cc(-c3noc(CNC(=O)c4ccccc4)n3)ccc21
Result block: n

Query block: Could you tell me if the measured RP-LC retention time of CN1C(=O)c2cc(S(=O)(=O)Nc3ccc(Cl)cc3F)ccc2Oc2cccnc21 reaches 900 s or more?
Result block: y

Query block: Can O=C(Cc1ccc(F)cc1)Nc1nnc(C2CC(=O)N(c3ccccc3)C2)o1 (stereo not given) be said to have RP-LC retention time at or above 900 s?
Result block: n

Query block: For this compound, is measured RP-LC retention time 900 s or higher? CCc1ccc(NC(=O)N2CCC(CC(=O)N3CCCCC3)CC2)cc1
Result block: n

Query block: For this compound, is measured RP-LC retention time 900 s or higher? COc1ccc(C(O)CN2CCN(c3ncccn3)CC2)cc1 (stereo not given)
Result block: n

Query block: hey, is RP-LC retention time for this one >= 900 s? CCN(CC)c1nc(C(=O)N2CCN(C(C)C)CC2)nc2nc(C)cc(C)c12
Result block: n

Query block: Determine whether this compound has RP-LC retention time no lower than 900 s: O=C(COc1ccccc1)Nc1nnc(SCC(=O)N2CCCc3ccccc32)s1
Result block: n

Query block: Please check the record Cc1ccc(C)c(Cn2nc3c(S(=O)(=O)N4CCc5ccccc5C4)cccn3c2=O)c1 and state if its RP-LC retention time is at or above 900 s.
Result block: y

Query block: Decide: is the reported value of RP-LC retention time for CCCn1ccc2sc(C)c(C(=O)N3CCN(c4ccccc4)CC3)c2c1=O equal to or greater than 900 s?
Result block: n

Query block: Determine whether this compound has RP-LC retention time no lower than 900 s: CC(C)CCNC(=O)Nc1ccc2c(c1)CCN2S(C)(=O)=O
Result block: n

Query block: Is the recorded value of RP-LC retention time equal to or greater than 900 s for this compound? Cc1ccc(NC(=O)N2CCc3c(c(-c4nnc(-c5ccc(F)cc5)o4)nn3C)C2)cc1C
Result block: y

---

assay: gradient 5% acetonitrile 3 min, to 50% in 2 min, to 85% in 15 min, held 3 min, 100 µL/min; settings: column: Zorbax Extend-C18 2.1 x 50 mm; eluents: water / acetonitrile, 0.1% formic acid
Classify: 1 (yes) when RP-LC retention time is strictly less than 800 s; 0 (no) when RP-LC retention time is not.

Query block: Dear colleague, could you confirm whether RP-LC retention time of Cc1sc(C)c(S(=O)(=O)N2CCCCC2)c1-c1cc(C(F)(F)F)on1 falls below 800 s? Thanks.
Result block: 0 (no)

Query block: Please check: RP-LC retention time for CC(=O)NCc1nc(-c2ccc(Oc3ccc(NC(C)=O)cc3)cc2)no1 , strictly under 800 s or not?
Result block: 1 (yes)

Query block: Lab note: confirm whether the reported RP-LC retention time for this molecule is below 800 s, equality not counting. molecule: c1ccc2sc(SCc3cn4cccnc4n3)nc2c1
Result block: 1 (yes)

Query block: Below 800 s on RP-LC retention time? Entry COCCN1C(=O)CCc2cc(NS(=O)(=O)c3cccc(F)c3)ccc21
Result block: 1 (yes)

Query block: Regarding CNC(=O)C1CC(=O)N(c2cccc(C)c2)C1 (stereo not given) , kindly confirm whether its RP-LC retention time is beneath 800 s.
Result block: 1 (yes)

Query block: Does this molecule meet the criterion RP-LC retention time < 800 s? COc1cc(S(=O)(=O)NC2CC(C)(C)NC(C)(C)C2)ccc1F
Result block: 1 (yes)

Query block: Hello, I'm reviewing records and need to know if RP-LC retention time of COc1ccc(NC(=O)Nc2cccc(-c3cn4cccnc4n3)c2)cc1 is below 800 s. Could you check?
Result block: 1 (yes)

Query block: hey, is RP-LC retention time for COc1ccc(-c2cc(=O)n3c4ccccc4n(CC(=O)Nc4ccc(F)cc4)c3n2)cc1 lower than 800 s or not?
Result block: 0 (no)

Query block: Quick check: RP-LC retention time of Cc1cc(=O)n(CC(=O)Nc2cc(F)ccc2F)c(-c2ccc(F)cc2)n1 under 800 s?
Result block: 0 (no)

Query block: State whether 800 s exceeds RP-LC retention time recorded for CC(C)n1cnc(S(=O)(=O)N2CCC(C(=O)NCc3ccc(N(C)C)cc3)CC2)c1 .
Result block: 1 (yes)

Query block: Threshold test, RP-LC retention time < 800 s: Cc1ccc(S(=O)(=O)N2CCC(CCNC(=O)NCCc3ccccc3)CC2)cc1
Result block: 0 (no)

Query block: Hello, is RP-LC retention time of the following molecule strictly smaller than 800 s? CC(=O)Nc1c(-c2ccccn2)nsc1C(=O)N1CCC(C)CC1
Result block: 0 (no)

Query block: I wonder whether COCCNC(=O)CSc1nc(-c2ccccc2)[nH]c1-c1ccccc1 has RP-LC retention time below 800 s. Can you tell?
Result block: 1 (yes)

Query block: Threshold test, RP-LC retention time < 800 s: COC(=O)C1C(=O)C2=C(CC1C)NC(C)=C(C(=O)OCCOC(C)C)C2c1cccc(F)c1 (stereo not given)
Result block: 0 (no)

Query block: Hello, I'm reviewing records and need to know if RP-LC retention time of O=C(c1ccsc1)N1CCCC1c1nc(-c2ccc(F)cc2F)no1 (stereo not given) is below 800 s. Could you check?
Result block: 0 (no)

Query block: Hi there! Is RP-LC retention time for O=c1c2sccc2n(Cc2nc(-c3ccc(F)cc3)no2)c(=O)n1-c1ccc(Cl)cc1 below 800 s, do you know?
Result block: 0 (no)

Query block: Given the entry Cc1noc(C)c1Cc1ccc(C(=O)NCc2nn(C)c3c2CN(C)CC3)o1 , would its reported RP-LC retention time be below 800 s?
Result block: 1 (yes)
